METHOD NOTES: Single escalating dose IV infusion pharmacokinetics in healthy volunteers (noncompartmental)
Format: in vivo, human
CONDITION: both sexes, human, plasma, iv, 12 mg/m^2, Compound 1 Concentration, Cohort 2, 12 mg/m^2 IV; Time 8.5 h; r7-9=Subjects 1-3,r11=Mean,r13=Min,r14=Median,r15=Max,r17=Geometric Mean
ASSAY METRIC: concentration at 8.5 h
Kindly format the answer as number then unit.

Ask | Please indicate concentration at 8.5 h recorded for CN1CCN(c2ccc(Nc3ncc4cc5n(c4n3)C3(CCCCC3)CNC5=O)nc2)CC1
Reply | 2.79 ng/mL

---

METHOD NOTES: 14-day oral gavage toxicokinetic study in rats
Assay type: in vivo
CONDITION: both sexes, rat, plasma, po, 5 mg/kg, Mean Compound 1 Plasma Concentration, rats, oral 5 mg/kg, Day 14, 2 h, Overall
ASSAY METRIC: concentration at 2 h (µg/mL)
State the answer as a number, implicitly in µg/mL.

Ask | Please indicate concentration at 2 h recorded for CN1CCN(c2ccc(Nc3ncc4cc5n(c4n3)C3(CCCCC3)CNC5=O)nc2)CC1 [Compound 1]
Reply | 0.47

---

METHOD NOTES: 14-day oral gavage toxicokinetic study in rats
Assay type: in vivo
CONDITION: male, rat, plasma, po, 15 mg/kg, Mean Compound 1 Plasma Concentration, rats, oral 15 mg/kg, Day 1, 24 h, Male
ASSAY METRIC: concentration at 24 h

Ask | Please indicate concentration at 24 h recorded for CN1CCN(c2ccc(Nc3ncc4cc5n(c4n3)C3(CCCCC3)CNC5=O)nc2)CC1
Reply | 84.5 ng/mL

---

METHOD NOTES: 14-day oral gavage toxicokinetic study in rats
Format: in vivo
CONDITION: male, rat, plasma, po, 5 mg/kg, Mean Compound 1 Plasma Concentration, rats, oral 5 mg/kg, Day 1, […], Male
ASSAY METRIC: concentration at […] (ng/mL)
State the answer as a number, implicitly in ng/mL.

Ask | Please indicate concentration at […] recorded for CN1CCN(c2ccc(Nc3ncc4cc5n(c4n3)C3(CCCCC3)CNC5=O)nc2)CC1
Reply | 16

---

METHOD NOTES: Compound 1 PK dosed Days 1-5 with topotecan
Type: in vivo, human
CONDITION: human, plasma, intravenous, 200 mg/m^2 with Topotecan 0.75 mg/m^2 (Cohort 3), Day 4, Geometric Mean; read-out: Cmax
ASSAY METRIC: Cmax (ng/mL)
State the answer as a number, implicitly in ng/mL.

Ask | Please indicate Cmax recorded for CN1CCN(c2ccc(Nc3ncc4cc5n(c4n3)C3(CCCCC3)CNC5=O)nc2)CC1 [Compound 1]
Reply | 1200

---

METHOD NOTES: 14-day oral gavage toxicokinetic study in rats
Type: in vivo
CONDITION: female, rat, plasma, po, 15 mg/kg, oral 15 mg/kg, Study Day 14, Female
ASSAY METRIC: AUC(0-inf) (µg·h/mL)
State the answer as a number, implicitly in µg·h/mL.

Ask | Please indicate AUC(0-inf) recorded for CN1CCN(c2ccc(Nc3ncc4cc5n(c4n3)C3(CCCCC3)CNC5=O)nc2)CC1
Reply | 20.8

---

METHOD NOTES: Topotecan PK following Compound 1 infusion
Type: in vivo, human
CONDITION: human, plasma, intravenous, topotecan 1.25 mg/m^2 (Cohort 2) after Compound 1 200 mg/m^2; Day 4; mean; read-out: Cmax averaged
ASSAY METRIC: Cmax (ng/mL)
State the answer as a number, implicitly in ng/mL.

Ask | Please indicate Cmax recorded for CC[C@@]1(O)C(=O)OCc2c1cc1n(c2=O)Cc2cc3c(CN(C)C)c(O)ccc3nc2-1.Cl [topotecan]
Reply | 59.6
